Please provide measured inhibition for the entries that follow.
targetOrTestSystem: Methyl-CpG-binding domain protein 4 (Homo sapiens);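 also: MBD4 activity read as fluorescence at 594 nm from cleavage and release of a quenched duplex DNA oligonucleotide, with APE1 coupled to incise the strand and raise turnover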
experimentalConditions: Compound Concentration 10.0 uM, Hit No
Description: Inhibition of MBD4 by quantifying inhibition of MBD4-mediated cleavage and dissociation of quenched duplex DNA oligonucleotides, measured as fluorescence at 594 nm. To generate a functional strand incision and increase turn-over this assay is coupled to APE1.
I only need the number, in %, no unit after it.

What value of measured inhibition is listed for CC(CNS(=O)(=O)C(C)C)c1ccc(-c2ccc(C#N)cc2)cc1 (stereo not given) ?
19.3

Can you look up the measured inhibition of `CC[C@H](CC(=O)O)n1c(=O)c2ncccc2n(Cc2cn(C)c3cc(C)cc(C)c23)c1=O` for me?
56.1

// inhibition lookup, key: `CO[C@H]1CC=C2CCN3CCC4=C(CC(=O)OC4)[C@]23C1`
5.26

Requested read-out: inhibition. Entry: `CCCCCCCN(CCc1ccc(SC(C)(C)C(=O)O)cc1)C(=O)Nc1ccc(F)cc1F`
74.5

I am curious: what inhibition value has been reported for `Cc1ccc2nc(NCCN)c3ncc(C)n3c2c1` ?
53

---

targetOrTestSystem: Uracil-DNA glycosylase (Homo sapiens) (UniProt P13051);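 also: UNG excision on a quenched double-stranded DNA oligo probe, with APE1 added for strand incision and turnover, read as fluorescence at 594 nm as strands separate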
Sequence (P13051 whole entry): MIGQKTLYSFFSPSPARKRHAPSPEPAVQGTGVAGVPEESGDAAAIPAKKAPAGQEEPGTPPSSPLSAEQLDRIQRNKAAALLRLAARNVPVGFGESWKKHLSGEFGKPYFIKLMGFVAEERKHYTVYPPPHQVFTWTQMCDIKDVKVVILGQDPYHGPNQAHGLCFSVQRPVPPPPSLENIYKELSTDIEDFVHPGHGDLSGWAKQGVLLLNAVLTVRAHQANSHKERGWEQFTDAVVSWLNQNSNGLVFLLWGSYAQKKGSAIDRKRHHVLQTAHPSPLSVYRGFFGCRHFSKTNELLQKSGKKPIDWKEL
experimentalConditions: Compound Concentration 10.0 uM, Hit No
Description: Inhibition of UNG by quantifying inhibition of UNG-mediated cleavage and dissociation of quenched duplex DNA oligonucleotides, measured as fluorescence at 594 nm. To generate a functional strand incision and increase turn-over this assay is coupled to APE1.
Field: inhibition. Provide a value for each of the compounds that follow.
A number alone suffices; assume %.

Suppose we examine the compound OCc1cc(C(O)CNCCCCCCOCCCCc2ccccc2)ccc1O (centres undefined) ; what inhibition value has been reported?
-9.38

Recorded inhibition of `CCC(=O)N[C@H]1CC[C@@H](C(=O)N(C)c2ccc(-c3nc4ccccc4o3)cc2)C1` , please.
-2.88

Would you mind telling me what inhibition value was observed for `C[C@H]1[C@H]2CC[C@H]3[C@@H]4CC=C5C[C@@H](N(C)C)CC[C@]5(C)[C@H]4CC[C@]23CN1C` ?
-8.6

# inhibition lookup, item `C[C@H](CCOc1cccc(CC(=O)O)c1)N(Cc1cccc(C(F)(F)F)c1Cl)CC(c1ccccc1)c1ccccc1`
0.574

Using the record for `CC(C)c1cc(Oc2c(Cl)cc(-n3nc(C#N)c(=O)[nH]c3=O)cc2Cl)n[nH]c1=O` , report its inhibition.
-0.0293

GET /values?readout=inhibition&item= `N#CN1CC[C@H](C(=O)Nc2nc3c(s2)CN(C(=O)CN=[N+]=[N-])CC3)C1`
1.18

Field request: inhibition | item: `CC(C)c1noc(N2CCC(COc3ccc(-c4ccc(S(C)(=O)=O)cc4)nc3)CC2)n1`
-6.54

// returns reported inhibition for input `CNC(=O)c1cc(C(=O)NC2CC2)cn(Cc2ccccc2)c1=O`
-2.05

Request the reported inhibition associated with `CCCN(CCc1cccs1)[C@H]1CCc2c(O)cccc2C1`
-4.64

Can you share its inhibition? I mean this compound: `COc1cnccc1Nc1nc(-c2nn(Cc3c(F)cc(OCCO)cc3F)c3ccccc23)ncc1OC`
-1.2

Dear colleague, I am looking for the recorded inhibition of the following compound: `N[C@@H](Cc1cc(I)c(Oc2ccc(O)c(I)c2)c(I)c1)C(=O)O`
5.16

Any idea what inhibition was measured for `COc1cc(-c2cn([C@H]3CCc4c(F)cccc4N(CC(F)(F)F)C3=O)nn2)ccc1-n1cnc(C)c1` ?
4.8

For the compound shown here, `Cc1oc2ccccc2c1Cc1cc(I)c(OCC(=O)O)c(I)c1` , give the reported inhibition.
6.35

Any idea what inhibition was measured for `CCCCCCCCCCCCC/C=C/[C@@H](O)[C@@H](N)COP(=O)([O-])OCC[N+](C)(C)C` ?
-1

Quick one: inhibition for `CCCCc1oc2ccccc2c1C(=O)c1cc(I)c(OCCN(CC)CC)c(I)c1` ?
1.42

For the compound `CC1(C)[C@H]2C[C@H](C/C=C\CCCC(=O)O)[C@@H](NC(=O)c3csc4ccc(O)cc34)[C@@H]1C2` , what inhibition is on record?
-7.99

What does the data say about its inhibition? Entry: `N#Cc1cc(F)cc(-c2nc(-c3ccc(F)cn3)no2)c1`
-3.92

Would you kindly share the measured inhibition for `NC1(c2ccc(-c3nc4ccn5c(=O)[nH]nc5c4cc3-c3ccccc3)cc2)CCC1` ?
17.3

Need inhibition of `CCC[C@@H]1CNCc2c1[nH]c(=O)c(C#N)c2N1CCC2(CC1)CC2` , thanks.
2.58
